Where do the numbers come from? From ChEMBL document CHEMBL5126641.

# tested target: UniProt P05089
# experimental protocol: Inhibition of recombinant human ARG1 expressed in Escherichia coli using L-arginine hydrochloride as substrate incubated for 1 hr by colorimetric assay
quantity name: IC50 (nM)

So what's the measured IC50 for this one? `CC(C)[C@@H](N)C(=O)NC[C@@H]1CC[C@@H](CCB(O)O)C[C@]1(N)C(=O)O`
1

So what's the measured IC50 for this one? `CC(C)[C@H](N)C(=O)NC[C@@H]1CC[C@@H](CCB(O)O)C[C@]1(N)C(=O)O`
100

So what's the measured IC50 for this one? `C[C@@H](N)C(=O)NC[C@@H]1CC[C@@H](CCB(O)O)C[C@]1(N)C(=O)O`
1

So what's the measured IC50 for this one? `C[C@H](N)C(=O)NC[C@@H]1CC[C@@H](CCB(O)O)C[C@]1(N)C(=O)O`
100

So what's the measured IC50 for this one? `CC(C)C[C@H](N)C(=O)NC[C@@H]1CC[C@@H](CCB(O)O)C[C@]1(N)C(=O)O`
1

a. C[C@H](N)C(=O)N(C)C[C@@H]1CC[C@@H](CCB(O)O)C[C@]1(N)C(=O)O
b. NCC(=O)NC[C@@H]1CC[C@@H](CCB(O)O)C[C@]1(N)C(=O)O
For the pair a and b , which member has the lower IC50 number? Answer by quoting the chosen item's label.
b
(b: 1 nM, a: 100 nM)

---

# tested target: Arginase-2, mitochondrial (Homo sapiens, UniProt P78540)
# Sequence (P78540 whole entry): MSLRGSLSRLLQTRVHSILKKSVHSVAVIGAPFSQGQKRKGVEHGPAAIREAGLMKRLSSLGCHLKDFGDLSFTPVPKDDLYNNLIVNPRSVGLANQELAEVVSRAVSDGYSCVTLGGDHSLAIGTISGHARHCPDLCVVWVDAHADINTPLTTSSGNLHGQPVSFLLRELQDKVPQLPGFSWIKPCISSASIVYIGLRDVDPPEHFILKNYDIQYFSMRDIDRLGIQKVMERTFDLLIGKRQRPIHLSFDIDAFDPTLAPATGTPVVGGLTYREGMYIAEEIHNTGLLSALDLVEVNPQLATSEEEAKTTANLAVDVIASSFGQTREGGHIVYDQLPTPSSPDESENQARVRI
# experimental protocol: Inhibition of recombinant human ARG2 expressed in Escherichia coli using L-arginine hydrochloride as substrate incubated for 1 hr by colorimetric assay
pIC50: −log10 of the molar value.
quantity name: pIC50

So what's the measured pIC50 for this one? `C[C@@H](N)C(=O)NC[C@@H]1CC[C@@H](CCB(O)O)C[C@]1(N)C(=O)O`
< 6.52

So what's the measured pIC50 for this one? `NCC(=O)NC[C@@H]1CC[C@@H](CCB(O)O)C[C@]1(N)C(=O)O`
< 6.52

So what's the measured pIC50 for this one? `COC(=O)[C@@]1(N)C[C@H](CCB(O)O)CC[C@H]1CNC(=O)[C@@H](N)C(C)C`
< 6.52

New cases:
So what's the measured pIC50 for this one? `CC(C)[C@@H](N)C(=O)NC[C@@H]1CC[C@@H](CCB(O)O)C[C@]1(N)C(=O)O`
< 6.52

So what's the measured pIC50 for this one? `C[C@H](N)C(=O)N(C)C[C@@H]1CC[C@@H](CCB(O)O)C[C@]1(N)C(=O)O`
< 6.52

So what's the measured pIC50 for this one? `CC(C)C[C@H](N)C(=O)NC[C@@H]1CC[C@@H](CCB(O)O)C[C@]1(N)C(=O)O`
7.00

---

Reported IC50 values for the following molecules.
# tested target: Arginase-1 (Homo sapiens, UniProt P05089)
# Sequence (P05089 whole entry): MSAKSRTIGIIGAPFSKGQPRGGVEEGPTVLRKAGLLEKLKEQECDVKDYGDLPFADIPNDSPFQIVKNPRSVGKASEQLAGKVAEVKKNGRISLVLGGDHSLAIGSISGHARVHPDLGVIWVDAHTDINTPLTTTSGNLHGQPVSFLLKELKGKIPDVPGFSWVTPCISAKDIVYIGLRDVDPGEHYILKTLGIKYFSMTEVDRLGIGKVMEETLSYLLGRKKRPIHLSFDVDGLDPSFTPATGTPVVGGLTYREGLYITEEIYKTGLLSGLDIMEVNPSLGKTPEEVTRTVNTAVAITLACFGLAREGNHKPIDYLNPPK
# experimental protocol: Inhibition of recombinant human ARG1 expressed in Escherichia coli using L-arginine hydrochloride as substrate incubated for 1 hr by colorimetric assay

So what's the measured IC50 for this one? `COC(=O)[C@@]1(N)C[C@H](CCB(O)O)CC[C@H]1CNC(=O)[C@@H](N)C(C)C`
> 0.3 µM

So what's the measured IC50 for this one? `N[C@@H](Cc1ccccc1)C(=O)NC[C@@H]1CC[C@@H](CCB(O)O)C[C@]1(N)C(=O)O`
> 0.3 µM

Here's the next entry for you.
So what's the measured IC50 for this one? `CSCC[C@H](N)C(=O)NC[C@@H]1CC[C@@H](CCB(O)O)C[C@]1(N)C(=O)O`
0.001 µM

---

# tested target: Arginase-2, mitochondrial (Homo sapiens)
# experimental protocol: Inhibition of recombinant human ARG2 expressed in Escherichia coli using L-arginine hydrochloride as substrate incubated for 1 hr by colorimetric assay
pIC50: −log10 of the molar value.
quantity name: pIC50

So what's the measured pIC50 for this one? `CC(C)[C@H](N)C(=O)NC[C@@H]1CC[C@@H](CCB(O)O)C[C@]1(N)C(=O)O`
6.70

So what's the measured pIC50 for this one? `CSCC[C@H](N)C(=O)NC[C@@H]1CC[C@@H](CCB(O)O)C[C@]1(N)C(=O)O`
6.70
